Overview of reported normalized RNA/DNA level with ligand (log10) across a group of variants:
B1: library; a variant is named by its letters at N, in order (parent)
chain: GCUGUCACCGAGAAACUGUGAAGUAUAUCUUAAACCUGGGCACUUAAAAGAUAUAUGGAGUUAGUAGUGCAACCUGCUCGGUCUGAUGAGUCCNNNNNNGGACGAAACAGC

Variants of: B1
experiment notes: normalized RNA/DNA level with ligand (relative to sTRSVctl = 100) (log10 (% of sTRSVctl)); HEK293T; ligand: cyclic di-GMP (c-di-GMP-II aptamer); ligand concentration (+) RNA-Seq: 1 mM; higher = less ribozyme self-cleavage, higher mRNA level
test parameters: reporter: mCherry (pCS4076), ligand present: yes
Answer as a number with no unit attached.

The examples below pair each entry with its known result.
INSERT INTO results (variant_label, data_value) VALUES
  ('GUGAUG', 1.73),
  ('GAGGGU', 1.75),
  ('CAUGUG', 1.85),
  ('AACGAA', 1.59),
  ('UAUACA', 1.85),
  ('AAUACG', 1.78),
  ('CCCCUG', 1.84),
  ('UUCGGG', 1.9);

In: Sample CACGGU — what was its normalized RNA/DNA level with ligand (log10)?
Out: 1.84

In: Same thing, different variant: AUUACU
Out: 1.86

In: Same thing, different variant: CACAGA
Out: 1.74
